# experimental target: Gonadotropin-releasing hormone receptor (Homo sapiens, UniProt P30968)
# run description: Displacement of [125I]D-Trp6-LHRH from human GnRH receptor expressed in CHO-K1 cell membranes incubated for 1 hr by competitive binding assay
Measured IC50 by item
metric: IC50

> print(dat)
                                   compound                       experimental.target  metric  measured.result
1  Cc1c(N2CCN(Cc3ccc[nH]c3=O)CC2)c(=O)n(C[C@H](N)c2ccccc2)c(=O)n1Cc1c(F)cccc1C(F)(F)F  Gonadotropin-releasing hormone receptor (Homo sapiens, UniProt P30968)    IC50         > 0.1 µM
2  Cc1c(N2CCc3ccccc3C2)c(=O)n(C[C@H](N)c2ccccc2)c(=O)n1Cc1c(F)cccc1F  Gonadotropin-releasing hormone receptor (Homo sapiens, UniProt P30968)    IC50         > 0.1 µM
3  Cc1c(N2CCN(CC3COc4ccccc4O3)CC2)c(=O)n(C[C@H](N)c2ccccc2)c(=O)n1Cc1c(F)cccc1F (stereo partly drawn)  Gonadotropin-releasing hormone receptor (Homo sapiens, UniProt P30968)    IC50         > 0.1 µM

----------
# experimental target: UniProtKB P30968
# Sequence (P30968 whole entry): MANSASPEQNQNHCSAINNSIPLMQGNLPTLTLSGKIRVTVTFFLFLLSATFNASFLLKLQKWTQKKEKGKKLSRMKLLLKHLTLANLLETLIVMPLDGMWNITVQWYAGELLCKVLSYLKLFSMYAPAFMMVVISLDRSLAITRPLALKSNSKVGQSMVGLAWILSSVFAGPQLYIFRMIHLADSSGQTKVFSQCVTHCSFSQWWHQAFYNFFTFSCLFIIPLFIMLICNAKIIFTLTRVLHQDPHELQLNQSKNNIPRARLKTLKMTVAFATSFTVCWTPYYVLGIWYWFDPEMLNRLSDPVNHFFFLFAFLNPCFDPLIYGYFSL
# run description: Antagonist activity against human GnRH receptor expressed in HEK293 cells co-transfected with pGL4-NFAT promoter AP1-luc assessed as inhibition of 20 nM GnRH-induced NFAT activation pre-incubated for 1 hr before GnRH stimulation and measured after 6 hrs by luciferase reporter gene assay
# Type: cell-based
pIC50: −log10 of the molar value.
Measured pIC50 by item
metric: pIC50

> print(dat)
                                        mol  measured.result
1  COC(=O)c1ccccc1CN1CCN(c2c(C)n(Cc3c(F)cccc3C(F)(F)F)c(=O)n(C[C@H](N)c3ccccc3)c2=O)CC1           < 5.00
2  Cc1c(N2CCN(Cc3cccc4cnoc34)CC2)c(=O)n(C[C@H](N)c2ccccc2)c(=O)n1Cc1c(F)cccc1C(F)(F)F           < 6.52
3  Cc1c(N2CCN(Cc3cccc(C(=O)NCC(=O)O)c3)CC2)c(=O)n(C[C@H](N)c2ccccc2)c(=O)n1Cc1c(F)cccc1C(F)(F)F           < 6.52

----------
Measured IC50 by item
# experimental target: Gonadotropin-releasing hormone receptor (Homo sapiens, UniProt P30968)
# run description: Antagonist activity against human GnRH receptor expressed in HEK293 cells co-transfected with pGL4-NFAT promoter AP1-luc assessed as inhibition of 20 nM GnRH-induced NFAT activation pre-incubated for 1 hr before GnRH stimulation and measured after 6 hrs by luciferase reporter gene assay
# Type: cell-based
metric: IC50

> print(dat)
                                        mol  measured.result
1  CCNC(=O)c1cccc(CN2CCN(c3c(C)n(Cc4c(F)cccc4C(F)(F)F)c(=O)n(C[C@H](N)c4ccccc4)c3=O)CC2)c1         > 300 nM
2  Cc1c(N2CCN(Cc3ccncn3)CC2)c(=O)n(C[C@H](N)c2ccccc2)c(=O)n1Cc1c(F)cccc1C(F)(F)F         > 300 nM
3  Cc1c(N2CCN(Cc3ccoc3)CC2)c(=O)n(C[C@H](N)c2ccccc2)c(=O)n1Cc1c(F)cccc1C(F)(F)F        > 1000 nM
4  Cc1c(N2CCN(Cc3nnc(C(F)(F)F)o3)CC2)c(=O)n(C[C@H](N)c2ccccc2)c(=O)n1Cc1c(F)cccc1C(F)(F)F         > 300 nM
5  Cc1c(N2CCN(Cc3cccs3)CC2)c(=O)n(C[C@H](N)c2ccccc2)c(=O)n1Cc1c(F)cccc1C(F)(F)F        > 1000 nM
6  Cc1c(N2CCN(Cc3ccon3)CC2)c(=O)n(C[C@H](N)c2ccccc2)c(=O)n1Cc1c(F)cccc1C(F)(F)F        > 1000 nM
